Readings of Ratio for the listed compounds
- Tested on: Pseudomonas aeruginosa
- TEST SUMMARY: Ratio of MIC for Pseudomonas aeruginosa N044 to MIC for Pseudomonas aeruginosa PAO1
- Assay type: functional

Below, 3 compounds whose answers are already recorded.
[
  {
    "LINE NOTATION": "CC(C)(O/N=C(\\C(=O)N[C@@H]1C(=O)N2C(C(=O)[O-])=C(C[n+]3ccccc3)CS[C@H]12)c1csc(N)n1)C(=O)O",
    "Ratio": 64
  },
  {
    "LINE NOTATION": "C[C@@H](O)[C@H]1C(=O)N2C(C(=O)O)=C(S[C@H]3C[C@@H](C(=O)N4CC[C@H](NC(=O)CNC(=N)N)C4)N(C)C3)[C@H](C)[C@H]12",
    "Ratio": 32
  },
  {
    "LINE NOTATION": "C[C@@H](O)[C@H]1C(=O)N2C(C(=O)O)=C(S[C@@H]3CN[C@H](C(=O)N(C)C)C3)[C@H](C)[C@H]12",
    "Ratio": 32
  }
]

Query string: Given the compound NCC[C@H](O)C(=O)N[C@@H]1C[C@H](N)[C@@H](O[C@H]2O[C@H](CN)[C@@H](O)[C@H](O)[C@H]2O)[C@H](O)[C@H]1O[C@H]1O[C@H](CO)[C@@H](O)[C@H](N)[C@H]1O , what is its reported Ratio?
Result string: 2

Data provenance is ChEMBL document CHEMBL1275475.
